For each record, write down the corresponding IC50.
tested on: SK-BR-3; assay: Cytotoxicity against human SKBR3 cells after 24 hrs; format: functional, cell-based; conditions: SK-BR-3, 24 h
Numbers only, in nM.

These solved cases illustrate the format of a correct answer.
C#CCCCn1c(Cc2cc(OC)c(OC)c(OC)c2)nc2c(N)ncnc21	31800
COc1cc(Cc2nc3c(N)ncnc3n2CCCC#CCNCCCCCCCCCCCCCCCCCCCCNCC#CCCCn2c(Cc3cc(OC)c(OC)c(OC)c3)nc3c(N)ncnc32)cc(OC)c1OC	1310
CO[C@H]1/C=C/C=C(\C)C(=O)NC2=CC(=O)C(NCCCCCCCCCCCCNC3=C4C[C@@H](C)C[C@H](OC)[C@H](O)[C@@H](C)/C=C(\C)[C@H](OC(N)=O)[C@@H](OC)/C=C/C=C(\C)C(=O)NC(=CC3=O)C4=O)=C(C[C@@H](C)C[C@H](OC)[C@H](O)[C@@H](C)/C=C(\C)[C@@H]1OC(N)=O)C2=O	296
C[C@@H]1C[C@H]2O[C@@H]2/C=C\C=C\C(=O)Cc2c(Cl)c(O)cc(O)c2C(=O)O1	3.64

Note: attention shifts to another entry.
So what's the measured IC50 for this one? `COc1cc(Cc2nc3c(N)ncnc3n2CCCC#CCNCCCCCCCCCCCCN)cc(OC)c1OC`
13100

###

I'd appreciate it if you could supply IC50 values for the items below.
system: SK-BR-3; test: Cytotoxicity against human SKBR3 cells after 24 hrs; assay type: functional, cell-based; details: SK-BR-3, 24 h
One number for each entry, in µM.

Record IC50 for all entries; do not skip any.
1. CO[C@H]1/C=C/C=C(\C)C(=O)NC2=CC(=O)C(NCCCCCCCCCCCCCCCCNC3=C4C[C@@H](C)C[C@H](OC)[C@H](O)[C@@H](C)/C=C(\C)[C@H](OC(N)=O)[C@@H](OC)/C=C/C=C(\C)C(=O)NC(=CC3=O)C4=O)=C(C[C@@H](C)C[C@H](OC)[C@H](O)[C@@H](C)/C=C(\C)[C@@H]1OC(N)=O)C2=O
2. COc1cc(Cc2nc3c(N)ncnc3n2CCCC#CCNCCCCCCCCCCCCCCCCNCC#CCCCn2c(Cc3cc(OC)c(OC)c(OC)c3)nc3c(N)ncnc32)cc(OC)c1OC
3. COc1cc(Cc2nc3c(N)ncnc3n2CCCC#CCNCCCCCCCCCCCCNCC#CCCCn2c(Cc3cc(OC)c(OC)c(OC)c3)nc3c(N)ncnc32)cc(OC)c1OC
4. COc1cc(Cc2nc3c(N)ncnc3n2CCCC#CCNCCCCCCCCNCC#CCCCn2c(Cc3cc(OC)c(OC)c(OC)c3)nc3c(N)ncnc32)cc(OC)c1OC
5. CO[C@H]1/C=C/C=C(\C)C(=O)NC2=CC(=O)C(NCCCCNC3=C4C[C@@H](C)C[C@H](OC)[C@H](O)[C@@H](C)/C=C(\C)[C@H](OC(N)=O)[C@@H](OC)/C=C/C=C(\C)C(=O)NC(=CC3=O)C4=O)=C(C[C@@H](C)C[C@H](OC)[C@H](O)[C@@H](C)/C=C(\C)[C@@H]1OC(N)=O)C2=O

[0.15, 3.18, 5.73, 85.7, 0.258]
